- STUDY SYSTEM: plasma kallikrein (Homo sapiens, UniProt P03952)
- Sequence (P03952 391-638 limits assumed): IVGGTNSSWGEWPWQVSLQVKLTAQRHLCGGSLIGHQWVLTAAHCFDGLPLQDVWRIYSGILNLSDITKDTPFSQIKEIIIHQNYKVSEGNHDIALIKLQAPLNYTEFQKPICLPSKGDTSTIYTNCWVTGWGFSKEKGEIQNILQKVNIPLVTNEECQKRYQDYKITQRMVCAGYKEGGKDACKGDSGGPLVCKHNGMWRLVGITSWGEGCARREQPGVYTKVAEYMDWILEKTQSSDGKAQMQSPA
- Sequence (P03952 20-390 partner limits assumed): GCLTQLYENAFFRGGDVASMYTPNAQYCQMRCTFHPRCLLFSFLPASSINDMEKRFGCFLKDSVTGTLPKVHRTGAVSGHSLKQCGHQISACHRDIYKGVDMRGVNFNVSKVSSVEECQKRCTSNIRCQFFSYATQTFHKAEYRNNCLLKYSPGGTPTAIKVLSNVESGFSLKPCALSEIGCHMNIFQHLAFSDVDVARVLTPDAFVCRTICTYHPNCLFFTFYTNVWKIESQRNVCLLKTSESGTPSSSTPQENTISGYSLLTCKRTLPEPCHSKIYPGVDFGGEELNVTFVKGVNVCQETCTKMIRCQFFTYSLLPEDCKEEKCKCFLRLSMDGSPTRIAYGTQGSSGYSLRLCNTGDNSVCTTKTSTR
- EXPERIMENT DESCRIPTION: Determination of inhibition constants for PK
- Format: biochemical
- Parameters: purchased Enzyme Research Lab. / Enzyme Research Laboratories
- RUN CONDITIONS: 25° C., substrate S2302, pH 8.0; read-out: PK [Ki]
pKi: −log10 of the molar value.
READOUT LABEL: pKi

Some solved cases for reference:
N=C(N)c1ccc(CNC(=O)[C@H](CCc2ccncc2)NC(=O)[C@@H](CC2CCCCC2)NS(=O)(=O)Cc2ccccc2)cc1 [compound 43] : > 7.00
N=C(N)c1ccc(CNC(=O)[C@H](CCc2ccccc2)NC(=O)[C@@H](CCCc2cc[n+]([O-])cc2)NS(=O)(=O)Cc2cccc(C(=O)O)c2)cc1 [compound 54] : > 8.00
N=C(N)c1ccc(CNC(=O)[C@H](CCc2ccccc2)NC(=O)[C@@H](CCCc2ccc[n+]([O-])c2)NS(=O)(=O)Cc2ccccc2)cc1 [compound 55] : > 8.00

Prompt line: Look up pKi: N=C(N)c1ccc(CNC(=O)[C@H](Cc2cccc(CN)c2)NC(=O)[C@@H](Cc2cccc3ccccc23)NS(=O)(=O)Cc2ccc(C(=O)O)cc2)cc1 [compound 16]
Response line: > 8.00

Prompt line: Look up pKi: CC(C)(C)OC[C@@H](NS(=O)(=O)Cc1ccc(C(=O)O)cc1)C(=O)N[C@@H](Cc1cccc(CN)c1)C(=O)NCc1ccc(C(=N)N)cc1 [compound 65]
Response line: > 8.00

Prompt line: Look up pKi: COC(=O)c1ccc(CS(=O)(=O)N[C@H](CO)C(=O)N[C@@H](Cc2cccc(CN)c2)C(=O)NCc2ccc(C(=N)N)cc2)cc1 [compound 69]
Response line: > 8.00

Prompt line: Look up pKi: N=C(N)c1ccc(CNC(=O)[C@H](Cc2cccc(CN)c2)NC(=O)[C@@H](CN)NS(=O)(=O)Cc2ccccc2)cc1 [compound 61]
Response line: > 8.00

Prompt line: Look up pKi: N=C(N)c1ccc(CNC(=O)[C@H](CCc2ccncc2)NC(=O)[C@@H](CCCc2ccccc2)NS(=O)(=O)Cc2ccccc2)cc1 [compound 39]
Response line: > 8.00

Prompt line: Look up pKi: CC(C)(C)OC(=O)NC[C@@H](NS(=O)(=O)Cc1ccccc1)C(=O)N[C@@H](Cc1cccc(CN)c1)C(=O)NCc1ccc(C(=N)N)cc1 [compound 60]
Response line: > 8.00

Prompt line: Look up pKi: N=C(N)c1ccc(CNC(=O)[C@H](Cc2ccc(CN)cc2)NC(=O)[C@@H](CCCc2ccccc2)NS(=O)(=O)Cc2ccc(C(=O)O)cc2)cc1 [compound 29]
Response line: > 8.00

Prompt line: Look up pKi: N=C(N)c1ccc(CNC(=O)[C@H](Cc2cccc(CN)c2)NC(=O)[C@@H](CCCC2CCCCC2)NS(=O)(=O)Cc2ccccc2)cc1 [compound 21]
Response line: > 8.00

Prompt line: Look up pKi: N=C(N)c1ccc(CNC(=O)[C@H](CCc2ccncc2)NC(=O)[C@@H](CCc2ccccc2)NS(=O)(=O)Cc2ccccc2)cc1 [compound 44]
Response line: > 7.00

Prompt line: Look up pKi: N=C(N)c1ccc(CNC(=O)[C@H](Cc2c[nH]cn2)NC(=O)[C@@H](CCCc2ccccc2)NS(=O)(=O)Cc2cccc(C(=O)O)c2)cc1 [compound 33]
Response line: > 7.00

Prompt line: Look up pKi: N=C(N)c1ccc(CNC(=O)[C@H](CCc2ccccc2)NC(=O)[C@@H](CCCc2ccccc2)NS(=O)(=O)Cc2ccc(C(=O)O)cc2)cc1 [compound 35]
Response line: > 8.00

Prompt line: Look up pKi: N=C(N)c1ccc(CNC(=O)[C@H](Cc2cccc(CN)c2)NC(=O)[C@H](NS(=O)(=O)Cc2cccc(C(=O)O)c2)C(c2ccccc2)c2ccccc2)cc1 [compound 23]
Response line: > 8.00

Prompt line: Look up pKi: N=C(N)c1ccc(CNC(=O)[C@H](CCc2ccccc2)NC(=O)[C@@H](CCCc2cccnc2)NS(=O)(=O)Cc2ccccc2)cc1 [compound 51]
Response line: > 8.00

Prompt line: Look up pKi: COC(=O)c1ccc(CS(=O)(=O)N[C@H](COC(C)(C)C)C(=O)N[C@@H](Cc2cccc(CN)c2)C(=O)NCc2ccc(C(=N)N)cc2)cc1 [compound 64]
Response line: > 8.00

Prompt line: Look up pKi: CC(C)(C)OC[C@@H](NS(=O)(=O)Cc1cccc(C(=O)O)c1)C(=O)N[C@@H](Cc1cccc(CN)c1)C(=O)NCc1ccc(C(=N)N)cc1 [compound 67]
Response line: > 8.00

Prompt line: Look up pKi: N=C(N)c1ccc(CNC(=O)[C@H](Cc2ccc(CN)cc2)NC(=O)[C@@H](CCCc2ccccc2)NS(=O)(=O)Cc2ccccc2)cc1 [compound 28]
Response line: > 8.00

Prompt line: Look up pKi: N=C(N)c1ccc(CNC(=O)[C@H](CCc2ccncc2)NC(=O)[C@@H](CCCc2ccccc2)NS(=O)(=O)Cc2cccc(C(=O)O)c2)cc1 [compound 40]
Response line: > 8.00
